- Organism: Homo sapiens
- assay.explanation: To identify inhibition of the IFN signalling (Jak-Stat) pathway via expression of an eGFP reporter gene under the control of an IFN-stimulated response element (ISRE) containing MxA promoter.
- Assay type: functional
- Set-up: scale not given: direction of the effect not stated beside the values
- reported.conditions: 30 µM
measured.attribute: Percent Effect (%)
Kindly answer with a numeric value in %, unit omitted.

Please review the entries below; each comes with its answer.
1) COc1ccc(CN(C)[C@@H]2CN(C(=O)c3cccs3)C[C@H]2O)cc1 :: 15.6
2) CC(=O)N1CCC(C(=O)c2cc(C)cnc2N)CC1 :: 17.4
3) Cc1cnc(N2C[C@H]3C[C@H](C(=O)N(C)C)[C@@H](C2)O3)nc1 :: -13.3

Incoming: Could you tell me which Percent Effect is on file for Cc1nc(NCc2ccc(C)o2)cc(C(=O)N2CCOCC2)n1 ?
Outgoing: 4.67

Incoming: Could you tell me which Percent Effect is on file for Cc1cccc(-c2nc(C)nn2CC(=O)NC2CCCC2)c1 ?
Outgoing: 5.48

Incoming: Could you tell me which Percent Effect is on file for CN1[C@H](Cn2cncn2)C[C@@H]2CN(Cc3cccc(C#N)c3)CC[C@@H]21 ?
Outgoing: -2.04
